measurement.protocol: Oral bioavailability in cynomolgous monkey
Assay type: ADME, organism-based, Macaca fascicularis
measurement.parameters: cynomolgus monkey, in vivo
quantity: bioavailability (%)
The answer is to be given in %; state only the numeric part.

QUERY: Determine its reported bioavailability: CCn1nc(-c2cnc(N)c(OC(F)F)c2)c2ccn([C@@H]3CCC(F)(F)C[C@@H]3OC)c(=O)c21
RESULT: 52

---

measurement.protocol: Inhibition of GST-tagged DLK (1 to 520 residues)(unknown origin) using MKK4 as substrate preincubated for 60 mins followed by substrate/ATP addition measured after 30 mins by HTRF assay
Set-up: species or system Homo sapiens
List of Ki values.
The answer is to be given in nM; state only the numeric part.

Solved entries (count: 3):
# molecule.smiles, value.observed
measured = [
    ("CCn1nc(-c2cnc(N)c(OC(F)(F)F)c2)c2ccn([C@@H](C)C3CC3)c(=O)c21", 1.5),
    ("CCc1nc(-c2cnc(N)c(OC(F)(F)F)c2)c2ccn(C3CCOCC3)c(=O)n12", 2),
    ("CN1CCC(c2ccc3c(-c4cnc(N)c(C(F)(F)F)c4)ncn3c2)CC1", 1.5),
]

QUERY: Determine its reported Ki: Nc1ncc(-c2ncn3ccccc23)cc1C(F)(F)F
RESULT: 63

QUERY: Determine its reported Ki: CCn1nc(-c2cnc(N)c(OC(F)F)c2)c2ccn([C@H]3CCOC[C@H]3OC3CC3)c(=O)c21
RESULT: 0.58

---

List of IC50 values.
measurement.protocol: Inhibition of human DLK transfected in HEK293-T-REx cells assessed as decrease in JNK phosphorylation incubated for 5 hrs by HTRF assay
Format: cell-based
The answer is to be given in nM; state only the numeric part.

Solved entries (count: 5):
# molecule.smiles, value.observed
rows = [
    ("CCn1nc(-c2cnc(N)c(OC(F)(F)F)c2)c2ccn([C@@H]3CCOC[C@H]3OC)c(=O)c21", 85),
    ("CC(C)c1ccc2c(-c3cnc(N)c(C(F)(F)F)c3)ncn2c1", 490),
    ("CCn1nc(-c2cnc(N)c(OC(F)(F)F)c2)c2ccn(C3CCN(C4COC4)CC3)c(=O)c21", 130),
    ("CCc1nc(-c2cnc(N)c(OC(F)(F)F)c2)c2ccc([C@H]3COCC(=O)N3C)cn12", 33),
    ("CN1CCC(c2ccc3c(-c4cnc(N)c(C(F)(F)F)c4)ncn3c2)CC1", 128),
]

QUERY: Determine its reported IC50: CCn1nc(-c2cnc(N)c(OC(F)(F)F)c2)c2ccn([C@@H](C)C3CC3)c(=O)c21
RESULT: 110

QUERY: Determine its reported IC50: CCc1nc(-c2cnc(N)c(C(F)(F)F)c2)c2ccc(C3(F)CCN(C)CC3)cn12
RESULT: 40

QUERY: Determine its reported IC50: CCn1nc(-c2cnc(N)c(OC(F)(F)F)c2)c2ccn([C@H]3CCN(C)C[C@H]3OC(F)(F)F)c(=O)c21
RESULT: 130

QUERY: Determine its reported IC50: CCn1nc(-c2cnc(N)c(OC(F)F)c2)c2ccn([C@H]3CCOC[C@H]3OC(F)(F)F)c(=O)c21
RESULT: 46

---

measurement.protocol: Inhibition of GST-tagged DLK (1 to 520 residues)(unknown origin) using MKK4 as substrate preincubated for 60 mins followed by substrate/ATP addition measured after 30 mins by HTRF assay
Design: species or system Homo sapiens
List of pKi values.
Please keep in mind that pKi is minus log10 of the molar concentration; only the number is needed.

Solved entries (count: 3):
# molecule.smiles, pKi
measured = [
    ("CCn1nc(-c2cnc(N)c(OC(F)(F)F)c2)c2ccn(C3CCN(C)CC3)c(=O)c21", 8.60),
    ("Nc1ncc(-c2cn(C3CCC3)c3cccnc23)cc1C(F)(F)F", 6.71),
    ("CCc1nc(-c2cnc(N)c(C(F)(F)F)c2)c2ccc(CN3CCOCC3)cn12", 8.34),
]

QUERY: Determine its reported pKi: CCn1nc(-c2cnc(N)c(OC(F)(F)F)c2)c2ccn([C@@H]3CCOC3)c(=O)c21
RESULT: 8.11
